These entries and their values trace back to patent US11753407B2.

EC (1.5-fold increase) values for the compounds below.
System: SMN2 minigene mRNA (SMN2-A minigene) in HEK293H cells
protocol_summary: SMN2 minigene mRNA splicing RT-qPCR assay in cultured cells
Assay type: cell-based, human
stated_conditions: Homo sapiens, HEK293-H; concentration increasing full length SMN2 mRNA 1.5-fold relative to vehicle-treated cells; HEK293H cells with SMN2-A minigene, 24 hours, 7-point concentration data; read-out: EC1.5x for production of full length SMN2 mRNA

The cases that follow already have their EC (1.5-fold increase) on record.
compound="Cc1cn2cc(-c3cc(=O)n4cc(N5CC[C@H](N(C)C)C5)ccc4n3)cc(C)c2n1 [Compound 828]" tgt="SMN2 minigene mRNA (SMN2-A minigene) in HEK293H cells" attribute_measured="EC (1.5-fold increase)" reported_measurement="< 0.1 µM"
compound="COc1ccc(-c2cc(=O)n3cc(N4CCN(C)[C@H](C)C4)cc(C)c3n2)cc1OC [Compound 333]" tgt="SMN2 minigene mRNA (SMN2-A minigene) in HEK293H cells" attribute_measured="EC (1.5-fold increase)" reported_measurement="0.1 to 0.3 µM"

## Task State its EC (1.5-fold increase) for this compound: COc1ccc(-c2cc(=O)n3cc(N4CCNCC4)ccc3n2)cc1F [Cpd 72]
## Result < 0.1 µM

## Task Tell me EC (1.5-fold increase) reported for Cc1cn2cc(-c3ccc4nc(C5CCN(C)CC5)cc(=O)n4c3)ccc2n1 [Compound 460]
## Result 0.1 to 0.3 µM

## Task State, in one line, measured EC (1.5-fold increase) of Cc1cn2cc(-c3cc(=O)n4cc(N5CCNCC5)ccc4n3)cc(C3CC3)c2n1 [Cpd 714]
## Result < 0.1 µM

## Task Give me measured EC (1.5-fold increase), please, for this compound: CCCc1nc(C)cn2nc(-c3cc(=O)n4cc(C5=CCNCC5)ccc4n3)cc12 [Compound 762]
## Result < 0.1 µM

## Task Check the records and state EC (1.5-fold increase) for COc1ncc(-c2cc(=O)n3cc(N4CCNCC4)ccc3n2)cc1F [Cpd 182]
## Result 0.3 to 1 µM

## Task State its EC (1.5-fold increase): Cc1nc2ccc(-c3cc(=O)n4cc(N5CCN6CCC[C@H]6C5)ccc4n3)cc2s1 [Compound 255]
## Result 0.3 to 1 µM

## Task # return recorded EC (1.5-fold increase) for input Cc1cn2nc(-c3cc(=O)n4cc(C5CCN(C)CC5)cc(C)c4n3)cc2c(C)n1 [Compound 672]
## Result < 0.1 µM

## Task Specify EC (1.5-fold increase) for Cc1cn2cc(-c3cc(=O)n4cc(N5CCN(C(C)C)[C@H](C)C5)ccc4n3)cc2c(C)n1 [Compound 730] and stop.
## Result < 0.1 µM

## Task Fill in reported EC (1.5-fold increase) for this entry: COc1ccc(-c2cc(=O)n3cc(N4CCNC[C@H]4C)ccc3n2)cc1OC [Compound 321]
## Result 1 to 3 µM

## Task Provide EC (1.5-fold increase) value for the following compound: Cc1cn2nc(-c3cc(=O)n4cc(N5CCC(CN(C)C)CC5)ccc4n3)cc2c(C)n1 [Compound 570]
## Result 0.3 to 1 µM

## Task For COc1ccc(-c2cc(=O)n3cc(C4=CCC(N(C)C)CC4)ccc3n2)cc1OC (stereo not shown) [Compound 367] , write its EC (1.5-fold increase).
## Result < 0.1 µM
